Exercise: state measured IC50 for each of the molecules provided.
# targetSystem: human type 2 5α-reductase (Homo sapiens, UniProt P31213)
# Construct: made in house; host or cells: Sf9 insect cells, recombinant baculovirus; microsomes
# Sequence (P31213 1-254): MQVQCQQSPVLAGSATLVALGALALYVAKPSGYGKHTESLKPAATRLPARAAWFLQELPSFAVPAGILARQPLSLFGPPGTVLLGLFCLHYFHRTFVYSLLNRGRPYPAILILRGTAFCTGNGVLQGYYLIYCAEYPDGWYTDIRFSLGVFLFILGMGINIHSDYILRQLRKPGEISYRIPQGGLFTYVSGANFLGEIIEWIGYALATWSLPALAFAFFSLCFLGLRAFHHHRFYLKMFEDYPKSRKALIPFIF
# assayProtocol: Inhibition of human type 2 steroid 5α-reductase (microsomes; testosterone to DHT conversion)
# Format: biochemical
# conditionContext: 20 min preincubation, pH 6.0, 8 nM testosterone, 20-40 min, 1 mM NADPH; read-out: IC50 Human Type 2 5AR

Consider the worked cases shown below.
{"columns": ["smilesCode", "IC50"],
 "data": [
  ["C[C@H]1C[C@H]2NC(=O)C=C[C@]2(C)[C@H]2CC[C@]3(C)[C@@H](C(=O)Nc4cc(C(F)(F)F)ccc4C(F)(F)F)CC[C@H]3[C@H]12", "1 to 10 nM"],
  ["C[C@]12C=CC(=O)N[C@@H]1CC[C@@H]1[C@@H]2CC[C@]2(C)[C@@H](C(=O)NC3(c4ccc(Cl)cc4)CCCCC3)CC[C@@H]12", "< 1 nM"]
]}

# context switch: different molecule, same IC50
Record summary for "CC(C)(C)c1ccc(C(F)(F)F)cc1NC(=O)[C@H]1CC[C@H]2[C@@H]3CC[C@H]4NC(=O)CC[C@]4(C)[C@H]3CC[C@]12C" : reported IC50 = < 1 nM

====

pKi: −log10 of the molar value.
Test system Human Adrenal 3BHSD (Homo sapiens, UniProt P26439), pKi listed for each of the molecules.

{"columns": ["molecule", "pKi"],
 "data": [
  ["CC(C)(C)c1ccc(C(F)(F)F)cc1NC(=O)[C@H]1CC[C@H]2[C@@H]3CC[C@H]4NC(=O)CC[C@]4(C)[C@H]3CC[C@]12C [Compound 25]", "< 6.00"]
]}

Please give pKi, item by item, for the list that follows.
1. CC(C)(C)c1ccc(C2(NC(=O)[C@H]3CC[C@H]4[C@@H]5CC[C@H]6NC(=O)C=C[C@]6(C)[C@H]5CC[C@]34C)CCCC2)cc1 [Compound 4]
2. C[C@]12C=CC(=O)N[C@@H]1CC[C@@H]1[C@@H]2CC[C@]2(C)[C@@H](C(=O)NC3(c4ccc5c(c4)OCO5)CCCCC3)CC[C@@H]12 [Compound 12]
3. C[C@]12C=CC(=O)N[C@@H]1CC[C@@H]1[C@@H]2CC[C@]2(C)[C@@H](C(=O)NC3(c4ccc(C(F)(F)F)cc4)CCCC3)CC[C@@H]12 [Compound 7]
4. CC(C)(C)c1ccc(C2(NC(=O)[C@H]3CC[C@H]4[C@@H]5CC[C@H]6NC(=O)C=C[C@]6(C)[C@H]5CC[C@]34C)CCCCCC2)cc1 [Compound 13]
5. CC(C)(C)c1ccc(C(F)(F)F)cc1NC(=O)[C@H]1CC[C@H]2[C@@H]3CC[C@H]4NC(=O)C=C[C@]4(C)[C@H]3CC[C@]12C [Compound 24]

Completion:
1: < 6.00; 2: 5.00 to 8.00; 3: < 6.00; 4: < 6.00; 5: < 6.00

====

# targetSystem: human type 2 5α-reductase (Homo sapiens)
# Construct: microsomes
# assayProtocol: Inhibition of human type 2 steroid 5α-reductase (microsomes; testosterone to DHT conversion)
# conditionContext: 20 min preincubation, pH 6.0, 8 nM testosterone, 20-40 min, 1 mM NADPH; read-out: IC50 Human Type 2 5AR
pIC50: −log10 of the molar value.
Exercise: state measured pIC50 for each of the molecules provided.

Consider the worked cases shown below.
{"columns": ["molecule", "parameter", "result"],
 "data": [
  ["C[C@]12C=CC(=O)N[C@@H]1CC[C@@H]1[C@@H]2CC[C@]2(C)[C@@H](C(=O)NC3(c4cccc(C(F)(F)F)c4)CCCC3)CC[C@@H]12 [Compound 19]", "pIC50", "> 9.00"],
  ["CN1C(=O)CC[C@]2(C)[C@H]3CC[C@]4(C)[C@@H](C(=O)Nc5cc(C(C)(C)C)ccc5C(C)(C)C)CC[C@H]4[C@@H]3CC[C@@H]12 [Compound 29]", "pIC50", "> 9.00"],
  ["CC(C)(C)c1ccc(C2(NC(=O)[C@H]3CC[C@H]4[C@@H]5CC[C@H]6NC(=O)C=C[C@]6(C)[C@H]5CC[C@]34C)CCOCC2)cc1 [Compound 14]", "pIC50", "> 9.00"],
  ["C[C@H]1C[C@H]2NC(=O)C=C[C@]2(C)[C@H]2CC[C@]3(C)[C@@H](C(=O)Nc4cc(C(F)(F)F)ccc4C(C)(C)C)CC[C@H]3[C@H]12 [Compound 31]", "pIC50", "8.00 to 9.00"],
  ["C[C@]12CCC(=O)N[C@@H]1CC[C@@H]1[C@@H]2CC[C@]2(C)[C@@H](C(=O)NC3(c4ccc(Cl)cc4)CCCC3)CC[C@@H]12 [Compound 1]", "pIC50", "> 9.00"]
]}

Please give pIC50, item by item, for the list that follows.
1. CC(C)(C)c1ccc(C(C)(C)C)c(NC(=O)[C@H]2CC[C@H]3[C@@H]4CC[C@H]5NC(=O)C=C[C@]5(C)[C@H]4CC[C@]23C)c1 [Compound 27]
2. C[C@]12C=CC(=O)N[C@@H]1CC[C@@H]1[C@@H]2CC[C@]2(C)[C@@H](C(=O)NC3(c4ccc(Cl)cc4)CCCC3)CC[C@@H]12 [Compound 3]
3. COc1ccc(C2(NC(=O)[C@H]3CC[C@H]4[C@@H]5CC[C@H]6NC(=O)C=C[C@]6(C)[C@H]5CC[C@]34C)CCCC2)cc1 [Compound 8]
4. CC(C)(C)c1ccc(C2(NC(=O)[C@H]3CC[C@H]4[C@@H]5CC[C@H]6NC(=O)C=C[C@]6(C)[C@H]5CC[C@]34C)C3CCCC2CCC3)cc1 (stereo partly drawn) [Compound 33]
5. CN1C(=O)CC[C@]2(C)[C@H]3CC[C@]4(C)[C@@H](C(=O)Nc5cc(C(F)(F)F)ccc5C(C)(C)C)CC[C@H]4[C@@H]3CC[C@@H]12 [Compound 26]

Completion:
> 9.00
> 9.00
> 9.00
> 9.00
> 9.00

Please give pIC50, item by item, for the list that follows.
1. C[C@]12CCC(=O)N[C@@H]1CC[C@@H]1[C@@H]2CC[C@]2(C)[C@@H](C(=O)Nc3cc(C(F)(F)F)ccc3C(F)(F)F)CC[C@@H]12 [Compound 22]
2. C[C@]12C=CC(=O)N[C@@H]1CC[C@@H]1[C@@H]2CC[C@]2(C)[C@@H](C(=O)NC3(c4ccc(F)cc4)CCCC3)CC[C@@H]12 [Compound 9]

Completion:
1. > 9.00
2. > 9.00

====

# targetSystem: human type 2 5α-reductase (Homo sapiens)
# Construct: microsomes
# assayProtocol: Inhibition of human type 2 steroid 5α-reductase (microsomes; testosterone to DHT conversion)
# conditionContext: 20 min preincubation, pH 6.0, 8 nM testosterone, 20-40 min, 1 mM NADPH; read-out: IC50 Human Type 2 5AR
parameter: IC50

Consider the worked cases shown below.
{"columns": ["smilesCode", "parameter", "result"],
 "data": [
  ["CC(C)(C)c1ccc(C(F)(F)F)cc1NC(=O)[C@H]1CC[C@H]2[C@@H]3CC[C@H]4NC(=O)C=C[C@]4(C)[C@H]3CC[C@]12C", "IC50", "< 1 nM"],
  ["CC(C)(C)c1ccc(C2(NC(=O)[C@H]3CC[C@H]4[C@@H]5CC[C@H]6NC(=O)C=C[C@]6(C)[C@H]5CC[C@]34C)CCCCCC2)cc1", "IC50", "< 1 nM"]
]}

Record summary for "C[C@H]1C[C@H]2NC(=O)C=C[C@]2(C)[C@H]2CC[C@]3(C)[C@@H](C(=O)NC4(c5ccc(Cl)cc5)CCCC4)CC[C@H]3[C@H]12" : reported IC50 = < 1 nM

====

Exercise: state measured pKi for each of the molecules provided.
# targetSystem: Human Adrenal 3BHSD (Homo sapiens, UniProt P26439)
# Sequence (P26439 1-372): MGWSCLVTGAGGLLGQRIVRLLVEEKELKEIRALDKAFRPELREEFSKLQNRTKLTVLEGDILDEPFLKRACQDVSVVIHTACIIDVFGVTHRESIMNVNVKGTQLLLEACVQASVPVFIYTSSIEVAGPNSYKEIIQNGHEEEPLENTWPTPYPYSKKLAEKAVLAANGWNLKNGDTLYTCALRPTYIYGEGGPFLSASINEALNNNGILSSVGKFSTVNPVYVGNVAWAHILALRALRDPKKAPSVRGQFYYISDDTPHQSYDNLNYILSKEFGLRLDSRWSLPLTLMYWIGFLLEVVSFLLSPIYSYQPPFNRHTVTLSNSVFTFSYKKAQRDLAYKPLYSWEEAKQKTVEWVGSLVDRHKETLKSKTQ
pKi: −log10 of the molar value.

{"columns": ["molecule", "parameter", "result"],
 "data": [
  ["CCC1(CC)CC1(NC(=O)[C@H]1CC[C@H]2[C@@H]3CC[C@H]4NC(=O)C=C[C@]4(C)[C@H]3CC[C@]12C)c1ccc(-c2ccccc2)cc1 (some centres unmarked)", "pKi", "< 6.00"]
]}

Please give pKi, item by item, for the list that follows.
1. CC(C)(C)c1ccc(C(C)(C)C)c(NC(=O)[C@H]2CC[C@H]3[C@@H]4CC[C@H]5NC(=O)CC[C@]5(C)[C@H]4CC[C@]23C)c1
2. C[C@]12C=CC(=O)N[C@@H]1CC[C@@H]1[C@@H]2CC[C@]2(C)[C@@H](C(=O)NC3(c4cccc(C(F)(F)F)c4)CCCC3)CC[C@@H]12
3. COc1ccc(C2(NC(=O)[C@H]3CC[C@H]4[C@@H]5CC[C@H]6NC(=O)C=C[C@]6(C)[C@H]5CC[C@]34C)CCCC2)cc1

Completion:
1. < 6.00
2. < 6.00
3. < 6.00
